# SUBJECT OF TEST: recombinant rat PAI-1 (Rattus norvegicus, UniProt P20961)
# Construct: purchased Molecular Innovations, Inc
# Sequence (P20961 24-402): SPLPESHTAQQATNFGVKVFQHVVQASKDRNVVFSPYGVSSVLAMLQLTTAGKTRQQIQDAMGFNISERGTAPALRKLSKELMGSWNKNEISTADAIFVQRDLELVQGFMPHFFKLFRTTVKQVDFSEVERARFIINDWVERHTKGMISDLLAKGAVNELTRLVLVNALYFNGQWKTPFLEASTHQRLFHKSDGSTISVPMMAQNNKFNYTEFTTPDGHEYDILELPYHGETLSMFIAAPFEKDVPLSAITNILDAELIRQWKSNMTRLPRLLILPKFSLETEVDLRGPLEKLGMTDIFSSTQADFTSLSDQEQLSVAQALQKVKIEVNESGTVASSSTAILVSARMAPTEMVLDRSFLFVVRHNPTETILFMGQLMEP
# ASSAY METHOD TEXT: Test Example 3: rat PAI-1 inhibitory activity (as Test Example 2 with rat PAI-1)
# Format: biochemical
# EXPERIMENTAL CONTEXT: rat PAI-1; compound concentration 1 μM
MEASUREMENT KIND: Inhibition Rate of PAI-1 Activity (%)

[
  {
    "SMILES NOTATION": "CC(C)Oc1ccc(N(Cc2ccc(C(C)(C)C)cc2)C(=O)C(=O)O)cc1-c1ccc(OC(F)(F)F)cc1",
    "QUANTITATIVE READOUT": 17
  }
]

1 = CC(C)(C)c1ccc(CN(C(=O)C(=O)O)c2ccc(OCc3ccccc3)c(-c3ccc(OC(F)(F)F)cc3)c2)cc1
2 = CCCCc1ccc(COc2ccc(-c3ccc(OC(F)(F)F)cc3)cc2CCC(=O)O)cc1
3 = CCN(CC)c1ccc(N(Cc2ccc(C(C)(C)C)cc2)C(=O)C(=O)O)cc1-c1ccc(OC(F)(F)F)cc1
4 = Cc1cc(N(C)C)c(-c2ccc(OC(F)(F)F)cc2)cc1N(Cc1ccc(C(C)(C)C)cc1)C(=O)C(=O)O
5 = CN(C)c1ccc(N(Cc2ccc(C(C)(C)C)cc2)C(=O)C(=O)O)cc1-c1ccc(OC(F)(F)F)cc1
Challenge: Sort entries by Inhibition Rate of PAI-1 Activity (%) from minimum to maximum value. Order the labels as requested and give them as your answer.
Response given: 2, 5, 4, 3, 1
(2: 5%, 5: 8%, 4: 16%, 3: 26%, 1: 40%)

====

# SUBJECT OF TEST: recombinant human PAI-1 (Homo sapiens)
# Construct: purchased Molecular Innovations, Inc
# Sequence (P05121 24-402): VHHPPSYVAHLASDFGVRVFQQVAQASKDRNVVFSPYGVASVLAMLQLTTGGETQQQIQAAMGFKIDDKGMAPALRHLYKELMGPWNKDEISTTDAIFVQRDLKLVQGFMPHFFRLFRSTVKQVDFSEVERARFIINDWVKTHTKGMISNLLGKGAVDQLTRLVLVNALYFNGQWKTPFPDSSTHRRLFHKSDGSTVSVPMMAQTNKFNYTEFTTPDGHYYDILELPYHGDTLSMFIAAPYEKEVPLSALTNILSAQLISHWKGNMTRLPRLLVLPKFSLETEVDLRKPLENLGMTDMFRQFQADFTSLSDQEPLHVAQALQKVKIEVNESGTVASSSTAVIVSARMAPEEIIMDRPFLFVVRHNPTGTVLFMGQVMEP
# ASSAY METHOD TEXT: Test Example 2: human PAI-1 inhibitory activity (tPA fluorogenic substrate, pH 7.4 HEPES buffer)
# Assay type: biochemical
# EXPERIMENTAL CONTEXT: human PAI-1; compound concentration 3 μM
MEASUREMENT KIND: Inhibition Rate of PAI-1 Activity (%)

[
  {
    "COMPOUND": "CC(C)(C)c1ccc(Oc2ccc(Nc3ccc(OC(F)(F)F)cc3)cc2CCC(=O)O)cc1 [Compound 432]",
    "SUBJECT OF TEST": "recombinant human PAI-1 (Homo sapiens)",
    "QUANTITATIVE READOUT": 97
  },
  {
    "COMPOUND": "O=C(O)C(=O)N(CCCCc1ccccc1)c1ccc(-c2ccc3ccccc3c2)cc1 [Compound 671]",
    "SUBJECT OF TEST": "recombinant human PAI-1 (Homo sapiens)",
    "QUANTITATIVE READOUT": 92
  },
  {
    "COMPOUND": "CCCCOc1ccc(-c2ccc(OC(F)(F)F)cc2)cc1/C=C/C(=O)O [Compound 405]",
    "SUBJECT OF TEST": "recombinant human PAI-1 (Homo sapiens)",
    "QUANTITATIVE READOUT": 63
  },
  {
    "COMPOUND": "O=C(O)C(=O)N(CCCCc1ccccc1)c1cc(-c2ccc(OC(F)(F)F)cc2)ccc1OCCCC1CCCCC1 [Compound 656]",
    "SUBJECT OF TEST": "recombinant human PAI-1 (Homo sapiens)",
    "QUANTITATIVE READOUT": 88
  }
]

Reference source: patent US8633245B2
